- Tested on: TO-N3-2 (biotin conjugate)
- Assay explanation: pull-down binding Z-score (relative to library population); higher = stronger binding
- Test context: RNA library: Library-2
Parameter measured: pull-down binding Z-score

> print(dat)
                           primary.sequence  reported.measurement
1       CUGUGAAUCCAAGAUCCACA [hsa-mir-4527]                -0.241
2  UGGGUUUGAGUCUGAAUCAACUCA [hsa-mir-181b-2]                -0.572
3           CAGUUUGGUCCAACUUAUUUGGAUGGAGCUG                -0.976
4  GGCAGGUGCCUCCGUGUUGCCGAACCCUCCU [hsa-mir-6761]                  1.74
5  UGUUGUAAAUAAGGGACACUUUGAUGGACAACA [DMSMaPseq_invitro_SARS-CoV-2_Motif_348]                 0.325
6  GUUUAUGAAAAACUCAAACCCGUCCUUGAUUGGCUUGAAGAGAAGUUUAAGGAAGGUGUAGAGUUUCUUAGAGAC               -0.0848

---

- System: TO-3-N3-2 (biotin conjugate)
- Assay explanation: pull-down binding Z-score (relative to library population); higher = stronger binding
- Test context: RNA library: Library-2
Parameter measured: pull-down binding Z-score

> print(dat)
                           primary.sequence  reported.measurement
1   GACGUCCAAUCUCUUUGGGACGCC [hsa-mir-2682]                -0.309
2                              GUGAAGAAUCAU                -0.146
3  CUUGCUUUGAAACUAAAGAAGUAAG [hsa-mir-302a]                -0.131
4  GGUUCAAGUUUGGCUCCAUCUUUAUGAAA [hsa-mir-4506]                 0.109
5    AUGCUAAGUCCAUGGGCAAACAU [hsa-mir-5704]                -0.165
6   GGUUUUGCCAUCAUGCCAAAAGCU [hsa-mir-548v]               -0.0997
7        AGACCUUCCUUCCUUGUCU [hsa-mir-3163]                -0.206
8  UGCCACCCAGCCCUGCAGAGCCCCUGACUC [hsa-mir-6814]                 0.422

---

pull-down binding Z-score: recorded values
- System: G-clamp-N3 (biotin conjugate)
- Assay explanation: pull-down binding Z-score (relative to library population); higher = stronger binding
- Test context: RNA library: Library-1 (pre-miRNA loops + repeats)
Parameter measured: pull-down binding Z-score

> print(dat)
                           primary.sequence         parameter.measured  reported.measurement
1  UGCUUUUUGUUUCUAACAAAGCA [hsa-mir-4679-2]  pull-down binding Z-score                -0.591
2   CAGACAAUAUAGCUGAGUUUGUCUG [hsa-mir-215]  pull-down binding Z-score                -0.604
3  UUCUUGUACGAGUCUGCGGCCAACCGAGAA [hsa-mir-219a-2]  pull-down binding Z-score               -0.0874
4    UGCUCUGAUGAAGACCCAUGUGGC [hsa-mir-621]  pull-down binding Z-score                  -0.6

---

- Test system: TO-N3 (biotin conjugate)
- Assay explanation: pull-down binding Z-score (relative to library population); higher = stronger binding
- Test context: RNA library: Library-2
Listing of recorded pull-down binding Z-score by entry.
Parameter measured: pull-down binding Z-score

Primary sequence	Tested target	Parameter measured	Reported measurement
UGUUGUAACAACA	TO-N3 (biotin conjugate)	pull-down binding Z-score	-0.992
GCAAACAUACAACGUGUUGU [SHAPE_invitro_SARS-CoV-2_Motif_281]	TO-N3 (biotin conjugate)	pull-down binding Z-score	-0.622
CGUACGCUUUAUCUGUGACGUAUG [hsa-mir-411]	TO-N3 (biotin conjugate)	pull-down binding Z-score	-0.611
GGAUUUCUGGACAUUUGGACAUAUAAUGCAGAAUUGUUAGUUCUACUGGAAAAUGAAAGGACUCUGGAUUUCC [IAV_invivo_HA_4_Motif_17+IAV_invivo_HA_4_Motif_17]	TO-N3 (biotin conjugate)	pull-down binding Z-score	-0.198
AGGUUUAUGACUGGGCAUUUCUCACCCAAUGCCCAAUAUUGAACUU [hsa-mir-4431]	TO-N3 (biotin conjugate)	pull-down binding Z-score	-0.752
CCCAUCCGUGGGUGGG [IAV_invivo_NA_6_Motif_4+IAV_invivo_NA_6_Motif_4]	TO-N3 (biotin conjugate)	pull-down binding Z-score	-0.897
AUCACUAGGUUUCAAACUUUACUUGCUUUACAUAGAAGUUAUUUGACUCCUGGUGAU	TO-N3 (biotin conjugate)	pull-down binding Z-score	-0.884
GGCCGUUUGAGAUGUCC [hsa-mir-3674]	TO-N3 (biotin conjugate)	pull-down binding Z-score	-0.259
UUACAGAUCUUUACCAGGAGUUUUCUGUGGUGUAGAUGCUGUAA [SHAPE_invivo_SARS-CoV-2_Motif_187]	TO-N3 (biotin conjugate)	pull-down binding Z-score	-1.21
GGCGUCUCAAGGCACC [IAV_invivo_NP_5_Motif_2+IAV_invivo_NP_5_Motif_2]	TO-N3 (biotin conjugate)	pull-down binding Z-score	0.151
UAGUACAUUUAUUAGUGAUGAAGUUGCGAGAGACUUGUCACUACAGUUUAAAAGACCAAUAAAUCCUACUG [SHAPE_invivo_SARS-CoV-2_Multi_21_ComplexLevel_1]	TO-N3 (biotin conjugate)	pull-down binding Z-score	0.716
UUGGCGUAGUGAAAUAUAUAUUAAACACCAA [hsa-mir-16-2]	TO-N3 (biotin conjugate)	pull-down binding Z-score	0.0274
CACUCAGGCAGUGCCAUGAGC [hsa-mir-6811]	TO-N3 (biotin conjugate)	pull-down binding Z-score	0.408
ACAGCCAGUGCUCUCGUCUCCCCUCUGGCUGC [hsa-mir-192]	TO-N3 (biotin conjugate)	pull-down binding Z-score	0.925
AUUGUUGUCGCUUCCAAGAAAAGGACGAAGAUGACAAU [DMSMaPseq_invitro_SARS-CoV-2_Motif_245]	TO-N3 (biotin conjugate)	pull-down binding Z-score	-0.00678

---

Each record here notes measured pull-down binding Z-score.
- Tested on: TO-3-N3-2 (biotin conjugate)
- Assay explanation: pull-down binding Z-score (relative to library population); higher = stronger binding
- Test context: RNA library: Library-2
Parameter measured: pull-down binding Z-score

> print(dat)
                           primary.sequence                 tested.target         parameter.measured  reported.measurement
1       GCCCGCUGUGUUCACUCGGGC [hsa-mir-602]  TO-3-N3-2 (biotin conjugate)  pull-down binding Z-score                -0.556
2  CCCAGAUGAAGGCACAGCUGGAGUGGAGUCCGCUGUUCUGAGGGGAUUCCUCAUUCUGGG [IAV_invivo_PB2_1_Motif_33+IAV_invivo_PB2_1_Motif_33]  TO-3-N3-2 (biotin conjugate)  pull-down binding Z-score                 0.166
3  GGCUGGGGUCACUGACUCUGCUUCCCCUGCC [hsa-mir-6799]  TO-3-N3-2 (biotin conjugate)  pull-down binding Z-score               -0.0439
4  GUGGAACUGACCUGCCCCCUUUCUC [hsa-mir-6817]  TO-3-N3-2 (biotin conjugate)  pull-down binding Z-score                 0.124

---

// pull-down binding Z-score lookup, one value per entry
- System: TO-N3 (biotin conjugate)
- Assay explanation: pull-down binding Z-score (relative to library population); higher = stronger binding
- Test context: RNA library: Library-2
Parameter measured: pull-down binding Z-score

> print(dat)
                           primary.sequence  reported.measurement
1  GACACCUGGAUUCAGAGAACAUGUC [hsa-mir-1276]                -0.156
2  GGUGGGGGCUCUGAGUGGGGAAAGUGGGGGCCUAGGGGAGGUCACAGU [hsa-mir-4259]                  4.21
3                            AGUUGUGAUCAACU                 -1.06
4                UUGAGAACCAG [hsa-mir-4328]                  1.79
5       CUGUGAAUCCAAGAUCCACA [hsa-mir-4527]                 -0.39
6  UGCGUUAGGAUUUCUGUAUCAUCCUCCUAACGCA [hsa-mir-3166]                 0.306
7  CUGGACUCUAAAUAGAAACCAACCUGCUGCAACAGCAUUGGCCAACACAAUAGAAGUGUUCAGAUCAAAUGGCCUCACGGCCAAUGAGUCUGG                -0.231
8       AGCUGGGUGGAGGCAGAGCU [hsa-mir-4291]                  2.34
